Source of measurements: patent US8252841B2

- assay-protocol: Pharmacokinetic analysis in mice
- reported-conditions: female, CD-1, mouse, plasma, oral, 20 mg/kg
quantity-name: bioavailability

**Query** Form field: reported bioavailability of "O=S(=O)(Nc1ccccc1)c1ccc(NC(=S)Nc2ccccc2)cc1"
**Result** ~70%
